Details: in methanol, 303.15 K
parameter_measured: solubility (mole fraction)
One number for each entry.

Problem: Given `O=C(O)CC[C@H](NC(=O)OCC1c2ccccc2-c2ccccc21)C(=O)O` , state its recorded solubility (mole fraction).
Result: 0.0364

* * *

Conditions: in n-butanol, 323.15 K
parameter_measured: solubility (mole fraction)
Answers are plain numbers.

Problem: Given `O=C(O)CC[C@H](NC(=O)OCC1c2ccccc2-c2ccccc21)C(=O)O` , state its recorded solubility (mole fraction).
Result: 0.0199

* * *

Settings: in methanol, 313.15 K
parameter_measured: solubility (mole fraction)
Numbers only.

Problem: Given `O=C(O)CC[C@H](NC(=O)OCC1c2ccccc2-c2ccccc21)C(=O)O` , state its recorded solubility (mole fraction).
Result: 0.0471
